# Test system: HCT116;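 note: HCT116 colorectal carcinoma cells screened at five concentrations per compound, luminescent viability scaled between DMSO wells and empty wells on each plate, curves fitted per compound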
# PROTOCOL_DETAILS: AC50 cell viability (CellTiter-Glo); higher = less potent
# RUN_CONDITIONS: 48 h
Counter-ions that a name gives are not always drawn.
ASSAY_METRIC: AC50 cell viability (µM)
Number only, in µM; omit the unit.

Look over these answered cases.
COMPOUND: Cc1ccc(-n2nc(C(C)(C)C)cc2N/C(O)=N/Cc2cc(F)ccc2Oc2ccc3c(cnn3CCO)c2)cc1
ASSAY_VALUE: 10.5
--
COMPOUND: C=CC(=O)Nc1cc(Nc2nccc(-c3cn(C)c4ccccc34)n2)c(OC)cc1N(C)CCN(C)C [Osimertinib mesylate]
ASSAY_VALUE: 8.33
--
COMPOUND: CC(=O)C\1=C(/C)C2=CN=C(NC3=CC=C(C=N3)N4CCNCC4)N=C2N(C5CCCC5)C1=O
ASSAY_VALUE: 16.6
--
COMPOUND: CC[C@@]1(O)C[C@H](O[C@H]2C[C@H](N(C)C)[C@H](O[C@H]3C[C@H](O)[C@H](O[C@H]4CCC(=O)[C@H](C)O4)[C@H](C)O3)[C@H](C)O2)c2c(cc3c(c2O)C(=O)c2c(O)cccc2C3=O)[C@H]1C(=O)OC
ASSAY_VALUE: 3.72
--
COMPOUND: C[C@H]1C[C@@H](n2c(Nc3ccc(OC(F)(F)F)cc3)nc3cc(CCC(=O)O)ccc32)CC(C)(C)C1
ASSAY_VALUE: 20.9
--
COMPOUND: CCC(=O)Nc1cccc(Oc2nc(Nc3ccc(N4CCN(C)CC4)cc3OC)ncc2Cl)c1
ASSAY_VALUE: 6.61

Complete the entry with AC50 cell viability for CCCCCCOC(=O)/N=C(/N)c1ccc(NCc2nc3cc(C(=O)N(CCC(=O)OCC)c4ccccn4)ccc3n2C)cc1
18.6

For the compound Clc1ccc(CCC(Cn2ccnc2)Sc2c(Cl)cccc2Cl)cc1 (centres undefined) [Butoconazole nitrate] , give its measured AC50 cell viability value.
20.9

For the compound CC1(N)CCN(c2cccnc2NC(=O)c2nc(-c3ncccc3C(F)(F)F)cnc2N)CC1 , report AC50 cell viability.
16.6
